Target: Prostaglandin E2 receptor EP4 subtype (Homo sapiens)
Sequence (P35408 whole entry): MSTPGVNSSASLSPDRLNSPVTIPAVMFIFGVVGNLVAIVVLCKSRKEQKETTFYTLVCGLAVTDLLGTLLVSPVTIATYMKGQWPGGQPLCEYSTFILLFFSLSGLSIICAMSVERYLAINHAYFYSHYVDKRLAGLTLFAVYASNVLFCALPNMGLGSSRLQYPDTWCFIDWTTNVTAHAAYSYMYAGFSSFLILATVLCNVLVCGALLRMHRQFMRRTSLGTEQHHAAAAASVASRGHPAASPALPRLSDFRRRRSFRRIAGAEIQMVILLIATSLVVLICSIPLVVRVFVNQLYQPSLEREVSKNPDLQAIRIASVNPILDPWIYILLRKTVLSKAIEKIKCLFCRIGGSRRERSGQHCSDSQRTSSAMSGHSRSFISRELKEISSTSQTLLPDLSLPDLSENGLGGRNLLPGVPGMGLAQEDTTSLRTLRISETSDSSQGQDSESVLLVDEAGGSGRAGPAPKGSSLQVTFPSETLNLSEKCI
Under this convention, rule met denotes Ki strictly below 0.03 µM and rule not met denotes Ki at or above 0.03 µM.

The following compounds have reported results that may help.
[[record]]
compound = "O=C(O)CCCCCCN1C(=O)CC[C@@H]1/C=C/C(O)c1ccc(C(F)(F)F)o1 (stereo partly specified)"
label_value = "rule met"

[[record]]
compound = "O=C(O)CCCCCCN1C(=O)CC[C@@H]1/C=C/C(O)c1cccc(C(F)(F)F)c1 (stereo partly specified)"
label_value = "rule not met"

[[record]]
compound = "O=C(O)CCCCCCN1C(=O)CC[C@@H]1/C=C/C(O)c1cccc(Oc2ccccc2)c1 (stereo partly specified)"
label_value = "rule not met"

[[record]]
compound = "O=C(O)CCCCCCN1C(=O)CC[C@@H]1CC[C@@H](O)Cc1cccc(C(F)(F)F)c1"
label_value = "rule met"

[[record]]
compound = "O=C(O)CCCCCCN1C(=O)CC[C@@H]1/C=C/C(O)c1cccc(-c2ccccc2)c1 (stereo partly specified)"
label_value = "rule not met"


# next compound below
Qu. Regarding O=C(O)CCCCCCN1C(=O)CC[C@@H]1/C=C/C(O)c1cccc(-c2cccc(Cl)c2)c1 (stereo partly specified) , kindly confirm whether its Ki is beneath 0.03 µM.
Ans. rule not met
